Measured enrichment ratio of individual entries
B1: PhoQ; a variant is named by its letters at X, in order, P23837 (parent)
chain: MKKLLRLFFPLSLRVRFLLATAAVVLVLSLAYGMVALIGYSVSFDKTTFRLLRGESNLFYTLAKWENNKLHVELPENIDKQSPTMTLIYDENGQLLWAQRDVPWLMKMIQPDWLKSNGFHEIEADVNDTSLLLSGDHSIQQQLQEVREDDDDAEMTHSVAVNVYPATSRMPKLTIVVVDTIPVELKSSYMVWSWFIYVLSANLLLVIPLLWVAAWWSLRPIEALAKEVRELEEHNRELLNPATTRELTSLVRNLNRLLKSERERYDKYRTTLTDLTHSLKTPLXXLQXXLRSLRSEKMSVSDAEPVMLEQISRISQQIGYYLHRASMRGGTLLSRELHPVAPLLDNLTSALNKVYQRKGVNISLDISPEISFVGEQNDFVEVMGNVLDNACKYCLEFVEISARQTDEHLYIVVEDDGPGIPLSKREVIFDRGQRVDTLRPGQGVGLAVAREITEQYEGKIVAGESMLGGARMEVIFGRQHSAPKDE

- Variants of: B1
- Measurement notes: enrichment ratio after two sorts for PhoP signalling (ratio (wild type AVST 3.29)); higher = more functional
- Measurement setup: with PhoP (E. coli)
In all, about 140,000 sequences were measured (“enrichment ratio after two sorts for PhoP signalling”: median about 0, highest 2% from about 11 on). This excerpt belongs to a sample that is enriched for the highest values.

Mutation spec | enrichment ratio
QPMV | ≤ 0.25

What value of enrichment ratio has been reported for the following variant? TKCQ 11.7

What value of enrichment ratio has been reported for the following variant? AKCQ 19.1
